Every entry's value here was drawn from ChEMBL document CHEMBL1828583.

Target: Orexin/Hypocretin receptor type 1 (Homo sapiens, UniProt O43613)
Sequence (O43613 whole entry): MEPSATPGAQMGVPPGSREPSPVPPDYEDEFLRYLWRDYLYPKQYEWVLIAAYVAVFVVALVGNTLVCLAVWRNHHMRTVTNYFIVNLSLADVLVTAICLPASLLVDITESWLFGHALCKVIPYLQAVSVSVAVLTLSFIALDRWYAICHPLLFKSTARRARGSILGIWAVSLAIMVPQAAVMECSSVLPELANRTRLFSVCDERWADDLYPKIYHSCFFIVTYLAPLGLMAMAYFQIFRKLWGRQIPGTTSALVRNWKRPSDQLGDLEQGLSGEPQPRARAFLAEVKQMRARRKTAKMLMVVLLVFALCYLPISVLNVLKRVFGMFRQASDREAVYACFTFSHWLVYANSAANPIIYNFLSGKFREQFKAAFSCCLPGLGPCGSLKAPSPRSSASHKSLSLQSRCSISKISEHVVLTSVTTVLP
Assay: Antagonist activity at recombinant human OX1R expressed in CHO cells by FLIPR calcium based functional assay
Assay type: cell-based
The compounds listed here are annotated with their Ki.

In the examples that follow, each entry is paired with its recorded Ki.
{"compound": "O=C(c1ccccc1-c1ccccc1)N1CCCC[C@H]1CCOc1ccc(F)cc1F", "Ki": "0.158 nM"}
{"compound": "COc1cccc(C(=O)N2CCCCC2CCOc2ccc(Cl)c(Cl)c2)c1 (racemic)", "Ki": "126 nM"}
{"compound": "O=C(c1ccc(Cl)c(Cl)c1)N1CCCCC1CCOc1ccc(Cl)c(Cl)c1 (racemic)", "Ki": "2510 nM"}
{"compound": "O=C(CC[C@@H]1CCCCN1C(=O)c1ccccc1-c1ccccc1)c1ccccc1", "Ki": "10 nM"}
{"compound": "N#Cc1cccc(C(=O)N2CCCCC2CCOc2ccc(Cl)c(Cl)c2)c1 (racemic)", "Ki": "398 nM"}
{"compound": "O=C(NC[C@H]1CCCCN1C(=O)c1ccccc1-c1ccccc1)c1ccc(F)cc1", "Ki": "39.8 nM"}
{"compound": "CN(C[C@@H]1CCCCN1C(=O)c1ccccc1-c1ccccc1)C(=O)c1ccc(F)cc1", "Ki": "501 nM"}
{"compound": "O=C(C[C@@H]1CCCCN1C(=O)c1ccccc1-c1ccccc1)Nc1ccccc1", "Ki": "50.1 nM"}

Now for the compound whose Ki we want.
Query: Checklist item: Ki tested on Orexin/Hypocretin receptor type 1 (Homo sapiens, UniProt O43613), entry O=C(NC[C@@H]1CCCCN1C(=O)c1ccccc1-c1ccccc1)Nc1ccccc1 , value?
Response: 1 nM

###

Assay: Fraction unbound in CD rat plasma at 1 mg/kg, iv after 1 hrs
Format: ADME, organism-based
Set-up: dose 1 mg/kg, route intravenous
property label: fraction unbound at 1 h
Just the number.

Query: Recorded fraction unbound at 1 h for Cc1nc(C(=O)N2CCCC[C@H]2CNC(=O)c2cccc3occc23)c(-c2ccc(F)cc2)s1 [SB-649868] , please?
Response: 0.0134

###

Test: Oral bioavailability in CD rat at 3 mg/kg
Format: ADME, organism-based
Conditions: in vivo
property label: bioavailability (%)
Report the figure in % without appending any unit label.

Query: Recorded bioavailability for Cc1nc(C(=O)N2CCCC[C@H]2CNC(=O)c2cccc3occc23)c(-c2ccc(F)cc2)s1 , please?
Response: 85

###

Molecular target: Orexin receptor type 2 (Homo sapiens, UniProt O43614)
Sequence (O43614 whole entry): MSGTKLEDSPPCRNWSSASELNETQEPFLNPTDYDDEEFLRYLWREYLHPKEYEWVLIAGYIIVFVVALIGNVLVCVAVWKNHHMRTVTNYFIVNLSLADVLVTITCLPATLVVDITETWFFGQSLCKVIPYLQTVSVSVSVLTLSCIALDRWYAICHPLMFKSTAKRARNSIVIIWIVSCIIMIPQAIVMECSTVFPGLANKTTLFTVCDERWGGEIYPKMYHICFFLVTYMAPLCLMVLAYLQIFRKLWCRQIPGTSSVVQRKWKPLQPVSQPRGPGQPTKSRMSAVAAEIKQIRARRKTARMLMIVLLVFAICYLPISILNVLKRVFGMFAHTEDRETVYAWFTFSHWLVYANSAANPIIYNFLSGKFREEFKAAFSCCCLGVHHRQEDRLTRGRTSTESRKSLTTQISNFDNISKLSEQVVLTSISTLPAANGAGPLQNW
Test: Displacement of [3H]almorexant from recombinant human OX2R expressed in CHO cells
Assay type: cell-based
property label: Ki (nM)
Report the figure in nM without appending any unit label.

Query: Recorded Ki for Cc1nc(C(=O)N2CCCC[C@H]2CNC(=O)c2cccc3occc23)c(-c2ccc(F)cc2)s1 , please?
Response: 1.29

###

Target: Orexin/Hypocretin receptor type 1 (Homo sapiens)
Assay: Antagonist activity at recombinant human OX1R expressed in CHO cells by FLIPR calcium based functional assay
Format: cell-based
property label: Ki (nM)
Report the figure in nM without appending any unit label.

{"molecule": "O=C(c1cccc2ccccc12)N1CCCC[C@H]1CCOc1ccc(F)cc1", "reading unit": "nM", "Ki": 6.31}
{"molecule": "O=C(c1ccccc1-c1ccccc1)N1CCCCC1CCOc1ccc(F)cc1 (racemic)", "reading unit": "nM", "Ki": 5.01}
{"molecule": "O=C(NC[C@@H]1CCCCN1C(=O)c1ccccc1-c1ccccc1)c1ccccc1", "reading unit": "nM", "Ki": 7.94}

Query: Recorded Ki for O=C(NC[C@@H]1CCCCN1C(=O)c1ccccc1-c1ccccc1)c1ccc(F)cc1 , please?
Response: 0.126
